All figures here come from the RNAGym collection of RNA variant scans (doi:10.1073/pnas.2313332121).

Reported polymerase ribozyme fitness (log ratio) values follow for various variants
B1: TPR 5TU (parent)
chain: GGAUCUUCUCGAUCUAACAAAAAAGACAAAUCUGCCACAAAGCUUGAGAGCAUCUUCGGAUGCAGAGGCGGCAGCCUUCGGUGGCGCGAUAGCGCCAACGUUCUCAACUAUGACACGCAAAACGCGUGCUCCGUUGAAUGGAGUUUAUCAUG

- Variants of: B1
- procedure.summary: polymerase ribozyme fitness, log enrichment relative to wild type (log ratio); higher = more active; in vitro selection for triplet polymerase activity
This sample holds only a part of the variants without activity.
assay.readout: polymerase ribozyme fitness (log ratio)

>>> observed_value("U101G A150G")
-0.649
>>> observed_value("A19C A60G C96U")
0.412
>>> observed_value("G94A C95G G133A U134G A137U")
-4.11
>>> observed_value("U4C A12U A21G G59A C85G G124U")
-2.83
>>> observed_value("G140U U144C")
-3.28
>>> observed_value("A17G A40C G48C")
-1.5
>>> observed_value("C125A U134C U148A G152A")
-4.13
>>> observed_value("A12G A37C C87U G92A A119U G136A")
-0.359
>>> observed_value("C10G A52G C54U G58C C79A C95U")
-3.91
>>> observed_value("C85U A120G G124U G143C")
-3.46
>>> observed_value("C35A G42A A91U")
-3.84
>>> observed_value("G124A")
-0.246
>>> observed_value("C27U A37C G59U G92C G117C")
-3.65
>>> observed_value("G83C U148A")
-3.1
>>> observed_value("U31A G58A U61A G84U A89C")
-3.15
>>> observed_value("A89U G94U")
-1.2
>>> observed_value("A52G C57U C75G A91U C95G C123A")
-4.05
>>> observed_value("A91G C123U")
-2.7
>>> observed_value("C18G A52U U82A")
-3.02
>>> observed_value("C69G G83C")
-4.05
>>> observed_value("G58A C95U C96G")
-1.01
>>> observed_value("G81C U135C")
-2.22
